B1: ADAMTS4 (parent)
chain: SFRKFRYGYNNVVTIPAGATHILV

Variants of: B1
Assay: protein stability index of a GFP-peptide fusion (GPS, HEK-293T) (PSI 1-6); higher = more stable;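 also: lentivirally expressed fusions sorted by FACS into six bins by GFP to DsRed ratio, PSI derived from sequencing read proportions per bin multiplied by bin number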
Settings: c terminus: a fixed tail appended
protein stability index below 2 gives NO; protein stability index at or above it gives YES.

[
  {
    "mutation label": "Y7Q",
    "label": "YES"
  },
  {
    "mutation label": "F2S",
    "label": "YES"
  },
  {
    "mutation label": "I22M",
    "label": "NO"
  },
  {
    "mutation label": "F2K",
    "label": "NO"
  },
  {
    "mutation label": "F2Q",
    "label": "YES"
  },
  {
    "mutation label": "N11P",
    "label": "YES"
  },
  {
    "mutation label": "A19C",
    "label": "YES"
  },
  {
    "mutation label": "A17W",
    "label": "YES"
  },
  {
    "mutation label": "R3I",
    "label": "YES"
  },
  {
    "mutation label": "T14L",
    "label": "YES"
  },
  {
    "mutation label": "H21T",
    "label": "YES"
  },
  {
    "mutation label": "V12L",
    "label": "YES"
  },
  {
    "mutation label": "N11Q",
    "label": "NO"
  },
  {
    "mutation label": "T14K",
    "label": "YES"
  },
  {
    "mutation label": "A17N",
    "label": "NO"
  },
  {
    "mutation label": "N11C",
    "label": "YES"
  },
  {
    "mutation label": "P16D",
    "label": "YES"
  },
  {
    "mutation label": "T14N",
    "label": "YES"
  },
  {
    "mutation label": "T20M",
    "label": "YES"
  },
  {
    "mutation label": "V13R",
    "label": "YES"
  },
  {
    "mutation label": "T14G",
    "label": "NO"
  },
  {
    "mutation label": "G8Q",
    "label": "YES"
  },
  {
    "mutation label": "I22F",
    "label": "YES"
  },
  {
    "mutation label": "I15P",
    "label": "NO"
  },
  {
    "mutation label": "T20D",
    "label": "NO"
  },
  {
    "mutation label": "F2T",
    "label": "NO"
  },
  {
    "mutation label": "A17H",
    "label": "NO"
  },
  {
    "mutation label": "R3F",
    "label": "YES"
  },
  {
    "mutation label": "H21I",
    "label": "YES"
  },
  {
    "mutation label": "R3G",
    "label": "YES"
  },
  {
    "mutation label": "V13Y",
    "label": "NO"
  },
  {
    "mutation label": "R3E",
    "label": "YES"
  },
  {
    "mutation label": "T14E",
    "label": "YES"
  },
  {
    "mutation label": "N11R",
    "label": "NO"
  },
  {
    "mutation label": "Y9S",
    "label": "NO"
  },
  {
    "mutation label": "N11F",
    "label": "NO"
  },
  {
    "mutation label": "G8D",
    "label": "YES"
  },
  {
    "mutation label": "R3M",
    "label": "NO"
  },
  {
    "mutation label": "K4Q",
    "label": "YES"
  },
  {
    "mutation label": "Y9W",
    "label": "YES"
  },
  {
    "mutation label": "A19N",
    "label": "YES"
  },
  {
    "mutation label": "T20F",
    "label": "YES"
  },
  {
    "mutation label": "V13I",
    "label": "YES"
  },
  {
    "mutation label": "K4P",
    "label": "YES"
  }
]

Every entry's value here was drawn from the supplement of paper PMC10567573.
